Target: T1, human NPY2 receptor (human, UniProt P49146 1-381)
T1 sequence (looked up): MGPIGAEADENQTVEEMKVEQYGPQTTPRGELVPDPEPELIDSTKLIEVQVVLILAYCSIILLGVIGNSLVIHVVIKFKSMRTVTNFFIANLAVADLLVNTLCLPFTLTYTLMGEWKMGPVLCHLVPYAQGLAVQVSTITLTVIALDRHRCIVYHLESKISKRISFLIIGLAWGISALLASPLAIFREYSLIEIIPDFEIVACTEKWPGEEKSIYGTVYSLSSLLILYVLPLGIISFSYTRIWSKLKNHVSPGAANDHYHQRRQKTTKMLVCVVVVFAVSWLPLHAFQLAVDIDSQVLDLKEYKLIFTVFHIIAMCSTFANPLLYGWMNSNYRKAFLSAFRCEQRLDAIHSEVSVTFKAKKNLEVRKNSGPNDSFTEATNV
Assay: cell-based or functional assay
Starred links: 1 amine or outer side, 2 acyl side, 3 side chain; linkers in the order of their positions; H or OH if unused. Non-standard residues stand in square brackets, D forms with d. Primed or numbered codes have the meaning given here. *: point of attachment. Pqa = 4-oxo-6-(1-piperazinyl)-3(4H)-quinazoline-acetic acid, O=C(Cn1cnc2ccc(N3CCN([*:1])CC3)cc2c1=O)[*:2]; Adamantane1carbonyl = O=C(C12CC3CC(CC(C3)C1)C2)*; Phe(3,4-Cl2) = N[C@@H](Cc1ccc(Cl)c(Cl)c1)C(=O)O; Phe(4-CF3) = N[C@@H](Cc1ccc(C(F)(F)F)cc1)C(=O)O; Phe(F5) = N[C@@H](Cc1c(F)c(F)c(F)c(F)c1F)C(=O)O; PEG30,000 SSA″ = PEG-CH2CH2NHCOCH2CH2CO-; Phe(3-F) = N[C@@H](Cc1cccc(F)c1)C(=O)O; PEG30,000 SPA = (PEG-30,000)CH2CH2CO; NMeR = CN[C@@H](CCCNC(=N)N)C(=O)O
Exercise: state measured Y2R EC50 (nM) cAMP for each of the binders provided.
Provide only the numeric value, understood in nM.

Lookup: Reported Y2R EC50 (nM) cAMP, binder IKXRHYLNLVTRQRX (Pqa as third residue; (NMe)Arg as penultimate residue; 2-Nal (2-Naphthyl Alanine) as C-terminal residue; C-terminal amide (NH2)) [H-Ile-Lys-Pqa-Arg-His-Tyr-Leu-Asn-Leu-Val-Thr-Arg-Gln-(NMe)Arg-2-Nal-NH2] : ____
Found: 2.4

Lookup: Subsequent entry: H-IK[Pqa]RHYLNLVTRQ[NMeR][Phe(3-F)]-NH2 [H-Ile-Lys-Pqa-Arg-His-Tyr-Leu-Asn-Leu-Val-Thr-Arg-Gln-(NMe)Arg-3Fluoro-Phe-NH2]
Found: 0.75

Lookup: Subsequent entry: H-IK[Pqa]RHYLNLVTRQ[NMeR][Phe(F5)]-NH2 [H-Ile-Lys-Pqa-Arg-His-Tyr-Leu-Asn-Leu-Val-Thr-Arg-Gln-(NMe)Arg-2,3,4,5,6 Pentafluoro-Phe-NH2]
Found: 2.5

Lookup: Subsequent entry: H-IK[Pqa]RHYLNLVTRQ[NMeR][Phe(3,4-Cl2)]-NH2 [H-Ile-Lys-Pqa-Arg-His-Tyr-Leu-Asn-Leu-Val-Thr-Arg-Gln-(NMe)Arg-3,4-dichloro-Phe-NH2]
Found: 1.47

Lookup: Subsequent entry: IKXRHYLNLVTRQRX (Pqa as third residue; (NMe)Arg as penultimate residue; 1-Nal (1-Naphthyl Alanine) as C-terminal residue; C-terminal amide (NH2)) [H-Ile-Lys-Pqa-Arg-His-Tyr-Leu-Asn-Leu-Val-Thr-Arg-Gln-(NMe)Arg-1-Nal-NH2]
Found: 1.14

Lookup: Subsequent entry: H-IK[Pqa]RHYLNLVTRQ[NMeR][Phe(4-CF3)]-NH2 [H-Ile-Lys-Pqa-Arg-His-Tyr-Leu-Asn-Leu-Val-Thr-Arg-Gln-(NMe)Arg-4-trifluoro methyl-Phe-NH2]
Found: 3.55

Lookup: Subsequent entry: Ac-IK(PEG30,000 SSA″)[Pqa]RHYLNWVTRQ[NMeR]Y-NH2
Found: 20.7

Lookup: Subsequent entry: H-IK[Pqa]RHYLNLVTRQ[NMeR]F-NH2 [H-Ile-Lys-Pqa-Arg-His-Tyr-Leu-Asn-Leu-Val-Thr-Arg-Gln-(NMe)Arg-Phe-NH2]
Found: 0.69

Lookup: Subsequent entry: IKXRHYLNLVTRQRX (Pqa as third residue; (NMe)Arg as penultimate residue; Cha (Cyclohexyl Alanine) as C-terminal residue; C-terminal amide (NH2)) [H-Ile-Lys-Pqa-Arg-His-Tyr-Leu-Asn-Leu-Val-Thr-Arg-Gln-(NMe)Arg-Cha-NH2]
Found: 0.5

Lookup: Subsequent entry: IXXRHYLNWVTRQRY (Nle as second residue; Pqa as third residue; (NMe)Arg as penultimate residue; C-terminal amide (NH2)) [H-Ile-Nle-Pqa-Arg-His-Tyr-Leu-Asn-Trp-Val-Thr-Arg-Gln-(NMe)Arg-Tyr-NH2]
Found: 0.108

Lookup: Subsequent entry: H-IK[Pqa]RHYLNWVTRQ[NMeR]Y-NH2 [H-Ile-Lys-Pqa-Arg-His-Tyr-Leu-Asn-Trp-Val-Thr-Arg-Gln-(NMe)Arg-Tyr-NH2]
Found: 0.25

Lookup: Subsequent entry: Adamantane1carbonyl-IK[Pqa]RHYLNWVTRQ[NMeR]Y-NH2 [Adamantoyl-Ile-Lys-Pqa-Arg-His-Tyr-Leu-Asn-Trp-Val-Thr-Arg-Gln-(NMe)Arg-Tyr-NH2]
Found: 2.9

Lookup: Subsequent entry: Ac-IK(PEG30,000 SPA)[Pqa]RHYLNWVTRQ[NMeR]Y-NH2 [Ac-Ile(PEG-30,000)CH2CH2CO(ε)Lys-Pqa-Arg-His-Tyr-Leu-Asn-Trp-Val-Thr-Arg-Gln-(NMe)Arg-Tyr-NH2]
Found: 24.4

Lookup: Subsequent entry: IKXRHYLNLVTRQRF (Pqa as third residue; (NMe)Arg as penultimate residue; 4 Methoxy-Phe as C-terminal residue; C-terminal amide (NH2)) [H-Ile-Lys-Pqa-Arg-His-Tyr-Leu-Asn-Leu-Val-Thr-Arg-Gln-(NMe)Arg-4 Methoxy-Phe-NH2]
Found: 0.55
